- experimental target: T1, human GARP-TGF-β1 complex (recombinant complex of human GARP and latent human TGF-β1) (human, UniProt Q14392 20-627; P01137 30-278; P01137 279-390)
- T1 construct: also called huGARP-TGF-β1; hGARP-TGF-β1
- T1 sequence (Q14392 20-627 limits assumed, chain 1 of 3): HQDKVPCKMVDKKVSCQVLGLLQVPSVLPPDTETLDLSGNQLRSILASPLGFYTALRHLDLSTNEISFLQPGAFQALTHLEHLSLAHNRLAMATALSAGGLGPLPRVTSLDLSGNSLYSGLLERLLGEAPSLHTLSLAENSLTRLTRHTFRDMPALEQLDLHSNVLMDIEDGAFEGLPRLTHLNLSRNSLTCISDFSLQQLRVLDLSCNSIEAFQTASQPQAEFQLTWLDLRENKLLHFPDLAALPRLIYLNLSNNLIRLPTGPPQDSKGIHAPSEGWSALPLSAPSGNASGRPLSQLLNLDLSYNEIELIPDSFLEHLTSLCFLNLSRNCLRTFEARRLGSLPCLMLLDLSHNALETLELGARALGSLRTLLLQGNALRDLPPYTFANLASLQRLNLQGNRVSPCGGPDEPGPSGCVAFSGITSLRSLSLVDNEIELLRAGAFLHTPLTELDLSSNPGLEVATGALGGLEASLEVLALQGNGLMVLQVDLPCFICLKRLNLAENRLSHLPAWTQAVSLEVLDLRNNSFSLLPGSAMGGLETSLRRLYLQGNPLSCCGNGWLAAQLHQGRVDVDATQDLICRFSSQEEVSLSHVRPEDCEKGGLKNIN
- T1 sequence (P01137 30-278 limits assumed, chain 2 of 3): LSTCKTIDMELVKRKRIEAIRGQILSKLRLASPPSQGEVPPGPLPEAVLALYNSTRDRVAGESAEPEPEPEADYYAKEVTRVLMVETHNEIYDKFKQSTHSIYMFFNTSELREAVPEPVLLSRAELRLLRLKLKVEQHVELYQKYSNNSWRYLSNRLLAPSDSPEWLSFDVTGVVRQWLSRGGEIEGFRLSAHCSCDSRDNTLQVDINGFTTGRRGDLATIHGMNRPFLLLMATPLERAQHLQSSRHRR
- T1 sequence (P01137 279-390 limits assumed, chain 3 of 3): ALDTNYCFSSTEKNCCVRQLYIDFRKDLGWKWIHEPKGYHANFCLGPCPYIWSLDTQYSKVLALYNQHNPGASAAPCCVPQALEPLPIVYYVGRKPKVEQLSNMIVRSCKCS
- test details: SPR Biacore 3000, chip ~4000 RU hGARP-TGF-β; slope vs -20°C reference (=100%); sample stored 56 d at 37°C
Let's look at some binders and their measured Activity on Biacore (%).
# output: bare number, implied unit %

Some solved entries appear below for comparison.
39B6-ANR IgG4 S228P (antibody, V domains shown, Variant of 39B6-A in IgG4 S228P format; Positions are Kabat-type) VH: QVQLVQPGAEVRKPGASVKVSCKASGYRFTSYYIDWVRQAPGQGLEWMGRIDPEDAGTKYAQKFQGRVTMTADTSTSTVYVELSSLRSEDTAVYYCARNRWETVVVGDLMYEYEYWGQGTLVTVSS VL: DIQMTQSPSSLSASVGDRVTITCQASQSISSYLAWYQQKPGQAPKILIYGASRLKTGVPSRFSGSGSGTSFTLTISSLEPEDAATYYCQQYASVPVTFGQGTKVEIKR :: 46.3
39B6-AYE (ARGX-115), IgG4 S228P (antibody, V domains shown) VH: QVQLVQPGAEVRKPGASVKVSCKASGYRFTSYYIDWVRQAPGQGLEWMGRIDPEDAGTKYAQKFQGRVTMTADTSTSTVYVELSSLRSEDTAVYYCARYEWETVVVGDLMYEYEYWGQGTLVTVSS VL: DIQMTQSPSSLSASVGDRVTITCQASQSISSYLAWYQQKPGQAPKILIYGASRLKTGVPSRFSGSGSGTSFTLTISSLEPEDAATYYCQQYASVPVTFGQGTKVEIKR :: 104
39B6-ANK IgG4 S228P (antibody, V domains shown, Variant of 39B6-A in IgG4 S228P format; Positions are Kabat-type) VH: QVQLVQPGAEVRKPGASVKVSCKASGYRFTSYYIDWVRQAPGQGLEWMGRIDPEDAGTKYAQKFQGRVTMTADTSTSTVYVELSSLRSEDTAVYYCARNKWETVVVGDLMYEYEYWGQGTLVTVSS VL: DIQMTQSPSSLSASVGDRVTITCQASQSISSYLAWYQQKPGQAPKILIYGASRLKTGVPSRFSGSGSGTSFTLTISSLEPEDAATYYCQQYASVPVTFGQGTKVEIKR :: 62.4

Give a short answer stating reported Activity on Biacore (%) for 39B6-AVE IgG4 S228P (antibody, V domains shown, Variant of 39B6-A in IgG4 S228P format; Positions are Kabat-type) VH: QVQLVQPGAEVRKPGASVKVSCKASGYRFTSYYIDWVRQAPGQGLEWMGRIDPEDAGTKYAQKFQGRVTMTADTSTSTVYVELSSLRSEDTAVYYCARVEWETVVVGDLMYEYEYWGQGTLVTVSS VL: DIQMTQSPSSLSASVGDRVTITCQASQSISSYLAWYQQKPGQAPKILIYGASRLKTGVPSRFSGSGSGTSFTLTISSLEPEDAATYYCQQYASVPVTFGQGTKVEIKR .
31.3
